These entries and their values trace back to ChEMBL document CHEMBL3259681.

Assign pKi to each entry below.
Kindly note that pKi refers to -log10 of the concentration in mol/L and answer with the value alone.

Inquiry: Answer briefly: pKi recorded on Translocator protein (Rattus norvegicus) for CCN(Cc1ccccc1)C(=O)c1nc(-c2ccccc2)c2cc(Cl)ccc2n1
Sequence (P16257 whole entry, looked up): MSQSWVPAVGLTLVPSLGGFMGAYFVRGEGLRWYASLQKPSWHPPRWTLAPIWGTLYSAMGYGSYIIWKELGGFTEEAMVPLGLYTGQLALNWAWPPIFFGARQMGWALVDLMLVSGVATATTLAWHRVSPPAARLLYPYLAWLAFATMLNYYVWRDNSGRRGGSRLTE
Reply text: 7.61

Inquiry: Identify measured pKi obtained with Translocator protein (Rattus norvegicus) for CCN(Cc1ccccc1)C(=O)c1nc(-c2ccccc2F)c2ccccc2n1 .
Reply text: 9.05

Inquiry: State recorded pKi with Translocator protein (Rattus norvegicus), entry CCN(Cc1ccc(C(=O)O)cc1)C(=O)c1nc(-c2ccccc2)c2ccccc2n1 , no comment.
Reply text: 6.14

Inquiry: Answer briefly: pKi recorded on Translocator protein (Rattus norvegicus) for CCN(Cc1ccccc1)C(=O)c1nc(-c2ccc(Cl)cc2)c2ccccc2n1
Reply text: 9.12

Inquiry: Specify the recorded pKi for CN(Cc1ccccc1)C(=O)c1nc(-c2ccccc2F)c2ccccc2n1 , system: Translocator protein (Rattus norvegicus).
Reply text: 8.95

Inquiry: Print Translocator protein (Rattus norvegicus) pKi for CCN(Cc1ccc(O)cc1)C(=O)c1nc(-c2ccccc2)c2ccccc2n1 .
Reply text: 8.06

Inquiry: # return pKi for CN(Cc1ccccc1)C(=O)c1cc2ccccc2c(-c2ccccc2Cl)n1 , test system: Translocator protein (Rattus norvegicus)
Reply text: 9.35

====

# Species on record: Homo sapiens
# assayRemarks: Binding affinity to Central-type benzodiazepine receptor (unknown origin)
The source made the active and inactive calls. No cut-off for these calls is given here.
outcomeMeasure: Activity

Worked cases, answers included:
| molecule | Activity |
| --- | --- |
| CCC(C)N(C)C(=O)c1nc(-c2ccccc2)c2ccccc2n1 (stereo not given) | inactive |
| CCC(C)N(C)C(=O)c1nc(-c2ccccc2Cl)c2ccccc2n1 (stereo not given) | inactive |
| CCCCCCN(CCCCCC)C(=O)c1nc(-c2ccccc2)c2cc(Cl)ccc2n1 | inactive |
| CCCCCCN(CCCCCC)C(=O)c1nc(-c2ccc(Cl)cc2)c2ccccc2n1 | inactive |
| CCC(C)N(C)C(=O)c1nc(-c2ccc(Cl)cc2)c2ccccc2n1 (stereo not given) | inactive |
| CCCCCCN(CCCCCC)C(=O)c1nc(-c2ccccc2)c2ccccc2n1 | inactive |
| CCCCCN(CCCCC)C(=O)c1nc(-c2ccccc2)c2ccccc2n1 | inactive |
| CCC(C)N(C)C(=O)c1nc(-c2ccccc2)c2cc(Cl)ccc2n1 (stereo not given) | inactive |

Inquiry: Return value of Activity for input CCCCN(CCCC)C(=O)c1nc(-c2ccccc2)c2ccccc2n1 , no commentary.
Reply text: inactive

Inquiry: Supply measured Activity of CCCCCCN(CCCCCC)C(=O)c1nc(-c2ccccc2Cl)c2ccccc2n1 in your reply.
Reply text: inactive
